Assay Explanation: BET inhibitor-based combinations targeting novel dependencies in MECOM-rearranged (r) AML: AML-191 cell line (AID 2202236; also: nearly all actives have a fitted effect of over 35% in size)
Settings: AML-191 viability, CellTiter-Glo luminescence, 48 h; series mostly up to 46 µM
Records with an inconclusive call do not appear. Calls of active or inactive are those of the source. Calls follow the shape of the dose curve; as a rule, active = well fitted inhibition curve with a large enough effect; inconclusive = small, poorly fitted or top-dose-only effect; inactive = flat fitted curve, though single readings scatter.
Labels: active, inactive

# Compound, Assigned Category
rows = [
    ("Cc1nnc(C(C)C)n1C1CC2CCC(C1)N2CC[C@H](NC(=O)C1CCC(F)(F)CC1)c1ccccc1 (stereo not given in full)", "inactive"),
    ("COc1ccc(C=Cc2cc(OC)c(OC)c(OC)c2)cc1NC(=O)[C@H](N)CO", "active"),
    ("COc1nc(C)cnc1NS(=O)(=O)c1cccnc1-c1ccc(-c2nnco2)cc1", "inactive"),
    ("CN[C@H]1CC[C@@H](c2ccc(Cl)c(Cl)c2)c2ccccc21", "active"),
    ("Cc1ccc(-n2nc(C(C)(C)C)cc2NC(=O)Nc2ccc(OCCN3CCOCC3)c3ccccc23)cc1", "active"),
]
